Biological target: T1, FLAG-hnRNP LL (UniProt Q8WVV9 1-542)
T1 sequence: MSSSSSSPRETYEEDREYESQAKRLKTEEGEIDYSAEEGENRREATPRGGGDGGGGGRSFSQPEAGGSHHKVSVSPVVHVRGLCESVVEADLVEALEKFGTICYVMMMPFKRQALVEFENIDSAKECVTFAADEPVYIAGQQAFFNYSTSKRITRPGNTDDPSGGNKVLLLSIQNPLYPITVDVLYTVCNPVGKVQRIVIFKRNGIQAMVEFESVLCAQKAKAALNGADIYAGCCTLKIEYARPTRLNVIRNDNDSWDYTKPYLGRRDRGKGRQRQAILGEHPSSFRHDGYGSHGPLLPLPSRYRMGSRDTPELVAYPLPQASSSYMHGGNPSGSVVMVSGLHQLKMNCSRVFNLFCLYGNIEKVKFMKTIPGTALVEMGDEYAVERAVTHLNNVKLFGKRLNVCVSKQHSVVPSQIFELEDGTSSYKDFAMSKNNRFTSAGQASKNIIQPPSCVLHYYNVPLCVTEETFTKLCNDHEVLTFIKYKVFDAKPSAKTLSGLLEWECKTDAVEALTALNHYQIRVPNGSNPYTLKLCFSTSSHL
Test: EMSA; EMSA: ~1 fmol 32P RNA (0.1 nM), 4.5% native PAGE; binding buffer as in cited ref 9, not given; BC50 values printed only in figures
Settings: protein: recombinant; tags: N-terminal FLAG; label: 32P-CTP body label

BINDER: CUUACCUACUCACACCACUGCAUUCUCACCCGCAAGCACC (ssRNA) [ESS1 wild type]
Kd: ~2 nM
